# MEASUREMENT PROTOCOL: Fraction unbound in dog plasma by equilibrium dialysis
# Assay type: ADME, cell-free, Canis lupus familiaris
PROPERTY NAME: fraction unbound
When you answer, write just the number.

C[C@@H]1Cc2c(ccc3[nH]ncc23)[C@@H](c2c(F)cc(/C=C/C(=O)O)cc2F)N1CC(C)(F)F :: 0.0062

Lab note: COc1cc(/C=C/C(=O)O)ccc1[C@@H]1c2ccc3[nH]ncc3c2C[C@@H](C)N1CC(C)(F)F gave fraction unbound of 0.0087

Lab note: C[C@@H]1Cc2c(ccc3[nH]ncc23)[C@@H](c2c(F)cc(/C=C/C(=O)O)cc2F)N1CC(C)(C)F gave fraction unbound of 0.0032
